Assay summary: blockers of RIG-like receptor reporter activation – cell-based, Sendai virus stimulus, luciferase, 10K MLSCN set, TLR/RLR signaling modifier project, primary screen (AID 602276);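 note: firefly luciferase from ISG56 promoter only with Renilla not read in this screen; 0% = Sendai virus plus DMSO and 100% = medium plus DMSO without virus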
Experimental setup: HEK293 RL24 IRF3 luciferase reporter, at 10 µM, hits give high values
Active and inactive are the calls of the source.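 Rule for the calls: active = inhibition at or above 50% at 10 µM; inactive = inhibition below 50%.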
Metric name: inhibition

Exam item: Suppose we examine the compound "COc1ccc(OC)c(NC(=O)CSc2nnc(-c3ccco3)n2-c2ccccc2)c1" ; what inhibition value has been reported?
Marked response: 12.9% (inactive)

Exam item: Suppose we examine the compound "Cc1ccc(Cn2ccc(NC(=O)c3noc4c3CCCC4)n2)cc1" ; what inhibition value has been reported?
Marked response: 10% (inactive)

Exam item: Suppose we examine the compound O=C(CN(CC1CCCO1)C(=O)CCC(=O)Nc1ccccn1)NCC1CCCO1 (stereo unspecified) ; what inhibition value has been reported?
Marked response: 13.4% (inactive)

Exam item: Suppose we examine the compound "CCOc1nc(-c2ccccc2)ccc1-c1noc(-c2cccnc2)n1" ; what inhibition value has been reported?
Marked response: -14.5% (inactive)

Exam item: Suppose we examine the compound "COc1ccc(NS(=O)(=O)c2c(C)[nH]c(=O)[nH]c2=O)c(OC)c1" ; what inhibition value has been reported?
Marked response: 7.23% (inactive)

Exam item: Suppose we examine the compound "COc1ccc(NC(=O)CC2CCCCC2)cc1OC" ; what inhibition value has been reported?
Marked response: -6.37% (inactive)

Exam item: Suppose we examine the compound "CC(=O)OCC(=O)c1ccc2ccn(C(C)=O)c2c1" ; what inhibition value has been reported?
Marked response: 4.56% (inactive)

Exam item: Suppose we examine the compound "CCCc1cc(=O)oc2cc(C)cc(OC(=O)c3ccco3)c12" ; what inhibition value has been reported?
Marked response: -12.5% (inactive)

Exam item: Suppose we examine the compound "COc1ccc(NC(=O)Nc2ccc(N3CCCC3=O)cc2)cc1OC" ; what inhibition value has been reported?
Marked response: 4.01% (inactive)

Exam item: Suppose we examine the compound "COC(=O)Cn1c(=NC(=O)CSCC(=O)Nc2cc(C)on2)sc2ccccc21" ; what inhibition value has been reported?
Marked response: 11.1% (inactive)

Exam item: Suppose we examine the compound "COCCCNC(=O)CSc1nc2ccc(N3CCOCC3)cc2c(=O)n1CCc1ccccc1" ; what inhibition value has been reported?
Marked response: -0.853% (inactive)

###

Assay summary: endothelial E-selectin expression blockers – imaging, HUVEC, immunofluorescence, MLSMR starter and 10KST1 sets, primary screen (AID 487);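 note: signal is fraction of cell area covered by stained E-selectin grains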
Experimental setup: HUVEC TNFalpha-induced E-selectin immunofluorescence imaging, at 2 µM; hits give high values
Activity calls are given as the source filed them.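 The calls were made as follows: active = visually confirmed hit in the image check and inhibition above 20%; inconclusive = visually confirmed hit but inhibition not above 20%; inactive = no visual hit in the image check.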
Metric name: inhibition

Exam item: Suppose we examine the compound "NS(=O)(=O)c1ccc(NC(=O)CSc2nnc(Cc3cccs3)n2-c2ccccc2)cc1" ; what inhibition value has been reported?
Marked response: -24.9% (inactive)

Exam item: Suppose we examine the compound "O=C(N1CCN(c2ccccc2F)CC1)C12CC3CC(CC(C3)C1)C2" ; what inhibition value has been reported?
Marked response: 17.9% (inactive)

Exam item: Suppose we examine the compound "CCOc1ccc2[nH]c(=O)c(CN(CCOC)C(=O)N3CCOCC3)cc2c1" ; what inhibition value has been reported?
Marked response: -3.2% (inactive)

Exam item: Suppose we examine the compound "O=C(CN1C(=O)c2cccc3cccc1c23)N1CCN(c2ccccc2)CC1" ; what inhibition value has been reported?
Marked response: -27.9% (inactive)

Exam item: Suppose we examine the compound "O=C(NCc1cccs1)c1cc2c(s1)CS(=O)(=O)C2" ; what inhibition value has been reported?
Marked response: -42.8% (inactive)

###

Assay summary: TLR3 IRF3 reporter activation blockers – cell-based, poly I:C stimulus, luciferase, 10K MLSCN set, primary screen (AID 602277)
Experimental setup: HEK293-TLR3 RL24 IRF3 luciferase reporter, at 10 µM, hits give high values
Metric name: inhibition (%)
Answer with a number only, understood to be in %.

Exam item: Suppose we examine the compound "Cc1ccc(C(=O)OCC(=O)c2ccc(Cl)s2)s1" ; what inhibition value has been reported?
Marked response: -58

Exam item: Suppose we examine the compound "COc1ccc(CC(=O)Nc2ccc(OC)c(NC(=O)c3ccco3)c2)cc1" ; what inhibition value has been reported?
Marked response: -49.2

Exam item: Suppose we examine the compound CCCC1(C(=O)OCC)NC(c2ccc(N(C)C)cc2)C2C(=O)N(c3ccccc3)C(=O)C21 (stereo unspecified) ; what inhibition value has been reported?
Marked response: 20.7

Exam item: Suppose we examine the compound "Cc1ccc(CN2CCN(C(=O)C3CCC3)CC2)cc1" ; what inhibition value has been reported?
Marked response: 6.88

Exam item: Suppose we examine the compound "O=C(Cn1c(=O)oc2ccccc21)N1CCN(c2ccccc2)CC1" ; what inhibition value has been reported?
Marked response: 14.4

Exam item: Suppose we examine the compound COCc1nnc(SCC(=O)NC(C)c2ccccc2)n1-c1ccccc1 (stereo unspecified) ; what inhibition value has been reported?
Marked response: 14.9

Exam item: Suppose we examine the compound "CCc1nnc(NC(=O)CCC(=O)Nc2ccccc2)s1" ; what inhibition value has been reported?
Marked response: 2.44

Exam item: Suppose we examine the compound "Cc1cc(C)n2nc(SCc3nc4ccccc4[nH]3)nc2n1" ; what inhibition value has been reported?
Marked response: -34.6

Exam item: Suppose we examine the compound Cc1cc(NC(=O)C23CCC(C)(C(=O)O2)C3(C)C)no1 (stereo unspecified) ; what inhibition value has been reported?
Marked response: 10.3

Exam item: Suppose we examine the compound "COc1cc(OC)c(OC)cc1CN(C)CCc1ccccn1" ; what inhibition value has been reported?
Marked response: 37.3

Exam item: Suppose we examine the compound "O=c1c2[nH]c3cccc(Cl)c3c2ncn1CCN1CCCCC1" ; what inhibition value has been reported?
Marked response: 27.2

###

Record form. Attribute: inhibition of aggregation. Fill in for each entry.
Assay summary: reduction of polyQ htt aggregates in cells – imaging, exon1htt(103Q)mCFP cells, high-content imaging, primary screen (AID 483);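 note: compound exposure lasted 3 days before fixation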
Experimental setup: exon1htt(103Q)mCFP cell line, aggregate imaging, at 2 µM; hits give high values
Answer with a number only, understood to be in %.

Exam item: Suppose we examine the molecule "COC(=O)c1ccc(CSc2nc3c(cnn3-c3ccc(C)c(C)c3)c(=O)[nH]2)o1" ; what inhibition of aggregation value has been reported?
Marked response: 2.1

Exam item: Suppose we examine the molecule "CN1CCN(S(=O)(=O)c2ccc(Sc3nnc(-c4cccs4)n3-c3ccccc3)nc2)CC1" ; what inhibition of aggregation value has been reported?
Marked response: -9

Exam item: Suppose we examine the molecule CC1CCc2nn(CC(=O)NCc3ccc(F)cc3)cc2C1 (stereo unspecified) ; what inhibition of aggregation value has been reported?
Marked response: -5.6

Exam item: Suppose we examine the molecule CCC(c1nnc(SCC(=O)Nc2ccc(C(=O)Nc3ccccc3OC)cc2)o1)N(C)C (stereo unspecified) ; what inhibition of aggregation value has been reported?
Marked response: -11.7

Exam item: Suppose we examine the molecule "O=C(NCCSc1c[nH]c2ccccc12)c1ccco1" ; what inhibition of aggregation value has been reported?
Marked response: -13.1

Exam item: Suppose we examine the molecule "CC(C)Cn1c2c(c(O)c(C(=O)Nc3ncccc3O)c1=O)CCCC2" ; what inhibition of aggregation value has been reported?
Marked response: 9.6

Exam item: Suppose we examine the molecule "COc1ccc(-c2nnc(SCC(=O)N3CCOCC3)o2)cc1OC" ; what inhibition of aggregation value has been reported?
Marked response: -39.9

Exam item: Suppose we examine the molecule "Cc1[nH]nc(N=CC2=C(O)CC(C)(C)CC2=O)c1-c1ccc(Cl)cc1" ; what inhibition of aggregation value has been reported?
Marked response: -7.7

Exam item: Suppose we examine the molecule "C=CCn1c(Cc2cccs2)nnc1SCC(=O)Nc1ccc(OC)c(OC)c1" ; what inhibition of aggregation value has been reported?
Marked response: 19.5

Exam item: Suppose we examine the molecule "C/C(Cl)=C\Cn1c(Nc2ccc(C)cc2)nc2c1c(=O)n(C)c(=O)n2C" ; what inhibition of aggregation value has been reported?
Marked response: 24.5

Exam item: Suppose we examine the molecule CC1CCCC(N2CCN(C(=O)c3ccc(F)cc3)CC2)C1 (stereo unspecified) ; what inhibition of aggregation value has been reported?
Marked response: -15.5

###

System under test: Voltage-gated potassium channel subunit beta-2 (Rattus norvegicus) (UniProt P62483)
Sequence (P62483 whole entry, looked up): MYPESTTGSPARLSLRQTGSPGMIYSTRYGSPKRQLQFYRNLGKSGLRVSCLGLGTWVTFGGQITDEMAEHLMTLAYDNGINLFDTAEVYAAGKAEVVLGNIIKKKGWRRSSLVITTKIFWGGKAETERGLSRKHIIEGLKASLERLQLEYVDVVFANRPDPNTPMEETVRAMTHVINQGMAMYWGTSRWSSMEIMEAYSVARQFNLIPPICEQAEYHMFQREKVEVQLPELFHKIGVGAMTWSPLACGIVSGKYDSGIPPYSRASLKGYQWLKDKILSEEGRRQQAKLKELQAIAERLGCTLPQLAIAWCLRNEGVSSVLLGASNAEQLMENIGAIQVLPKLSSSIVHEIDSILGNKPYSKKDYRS
Assay summary: enhancers of rat Kvbeta2 NADPH turnover – biochemical, NADPH fluorescence, primary screen (AID 623);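 note: fluorescence intensity change per second fitted from 20 to 320 s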
Experimental setup: Recombinant KvBeta, NADPH fluorescence decrease slope, 10 min; at 10 µM; hits give low values
Metric name: NADPH fluorescence slope
Give the figure only, with no unit attached.

Exam item: Suppose we examine the molecule "COCCN(CC(=O)Nc1ccccc1C)S(=O)(=O)c1ccc(S(=O)(=O)N2CCCC2)cc1" ; what NADPH fluorescence slope value has been reported?
Marked response: -7.2e-05

Exam item: Suppose we examine the molecule "COc1cccc(OC)c1C(=O)N1CCN(S(=O)(=O)c2ccccc2)CC1" ; what NADPH fluorescence slope value has been reported?
Marked response: -6.4e-05

Exam item: Suppose we examine the molecule "CCc1cc2c(=O)c(-c3nc4ccccc4[nH]3)coc2c(CN2CCC(C)CC2)c1O" ; what NADPH fluorescence slope value has been reported?
Marked response: -3.1e-05

Exam item: Suppose we examine the molecule "CC(C)CCN(C)C1CCN(S(=O)(=O)c2ccc(F)cc2)CC1" ; what NADPH fluorescence slope value has been reported?
Marked response: 1.3e-05

Exam item: Suppose we examine the molecule "COc1ccc(NC(=O)c2cnc3n(c2=O)CCS3)cc1OC" ; what NADPH fluorescence slope value has been reported?
Marked response: -3.9e-05

Exam item: Suppose we examine the molecule "COc1ccc(CCNC(=O)CSc2nnnn2-c2ccccc2OC)cc1OC" ; what NADPH fluorescence slope value has been reported?
Marked response: -5.1e-05

Exam item: Suppose we examine the molecule "COC(=O)c1c(C)oc2ccc(NS(=O)(=O)c3cccs3)cc12" ; what NADPH fluorescence slope value has been reported?
Marked response: -8.8e-05

Exam item: Suppose we examine the molecule "COc1ccccc1-c1nc(SCc2ccccn2)n[nH]1" ; what NADPH fluorescence slope value has been reported?
Marked response: -2.8e-05

Exam item: Suppose we examine the molecule CCSc1nc(O)c(CC)c(=O)n1C(C)CC (stereo unspecified) ; what NADPH fluorescence slope value has been reported?
Marked response: -3.6e-05

Exam item: Suppose we examine the molecule "O=C(CCN1CCN(C(=O)c2ccco2)CC1)Nc1ccc(F)cc1" ; what NADPH fluorescence slope value has been reported?
Marked response: 0.000122

Exam item: Suppose we examine the molecule O=C(NCc1ccccc1)C1CCCN(S(=O)(=O)c2cccnc2)C1 (stereo unspecified) ; what NADPH fluorescence slope value has been reported?
Marked response: -1.4e-05
